target: human CXCR4 (cell-expressed) (human, UniProt P61073 1-352); experiment: cell-based or functional assay
Sequence (P61073 whole entry): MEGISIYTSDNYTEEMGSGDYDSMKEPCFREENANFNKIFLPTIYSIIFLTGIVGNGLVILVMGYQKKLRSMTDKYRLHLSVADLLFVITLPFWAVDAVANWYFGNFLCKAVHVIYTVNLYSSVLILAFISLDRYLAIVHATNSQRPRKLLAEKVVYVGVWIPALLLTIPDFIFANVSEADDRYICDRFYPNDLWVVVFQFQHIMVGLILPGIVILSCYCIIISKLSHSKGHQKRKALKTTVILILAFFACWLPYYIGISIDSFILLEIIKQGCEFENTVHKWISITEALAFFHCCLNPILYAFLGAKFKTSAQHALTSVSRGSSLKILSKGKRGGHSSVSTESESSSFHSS
value_kind: % Max Inhibition, beta-arrestin reporter assay, Tango CXCR4-bla U2OS cells (%)
Please respond with the number in % and leave the unit unwritten.

Looking up CL-148729 (antibody, human IgG4 S228P, lambda, V domains shown, Tested in human IgG4-PE format) VH: AVQLVESGGGLVQPGGSLKLSCAASGFTFSGSTMHWVRQASGRGLEWVGRIRSKADSYATAYSASVKGRFTISRDDSKKMAYLQMNSLKTEDMAVYYCTRSGDYWGQGTLVTVSS VL: QSVLTQPPSVSAAPGQKVTISCSGSSSNIGKNYVAWYQQLPGTAPKLLIYDTNKRPSGIPDRFSGSKSGTSATLDITGLQTGDEADYYCGTWDISLSVGWLFGGGTKVTVLG , I see its % Max Inhibition, beta-arrestin reporter assay, Tango CXCR4-bla U2OS cells listed as 99.6

Looking up CL-148712 (antibody, human IgG4 S228P, kappa, V domains shown) VH: EVQLVESGGDLVQPGGSLRLSCAASGFTFYSYAMNWVRQAPGKGLKWVSGISGSGDITYYADSVKGRFTISRDNSKNTLYLQMHSLRAEDTAVYYCAKGQLERRYYKYYGMDVWGQGTTVTVSS VL: DIQMTQSPSSLSASVGDRVTITCRANQGIRNDLGWYQQKPGKAPKRLIYGASSLKSGVPSRFSGSGSGTEFTLTISSLQPEDFATYYCLQQNSYPLTFGGGTKVEIKR , I see its % Max Inhibition, beta-arrestin reporter assay, Tango CXCR4-bla U2OS cells listed as 98.4

Looking up CL-82556 (antibody, human IgG4 S228P, kappa, V domains shown, Tested in human IgG4-PE format) VH: QVQLVESGGGVVQPGRSLRLSCAASGFTFYSYGMHWVRQAPGKGLEWVAVIWYGGTNKYYADSVKGRFTISRDNSKNTLYLQMNSLTAEDTAVYYCARGQLERRRGGLNIWGQGTMVTVSS VL: DIQMTQSPSSLSASVGDRVTITCRASQGVRDDLGWYQQKPGKAPKRLIYAASNLQSGVPSRFSGSGSGTEFTLTIGSLQPEDFATYYCLQHNSYPFTFGPGTKVDIKR , I see its % Max Inhibition, beta-arrestin reporter assay, Tango CXCR4-bla U2OS cells listed as 101
